PROTOCOL DESCRIPTION: chemical recovery by SPE of plasma after PDMS sampling; higher = better extraction
CONDITION PARAMETERS: pooled human plasma; extraction method: HLB SPE of plasma after PES; equilibration time (d): 6
MEASUREMENT KIND: chemical recovery by SPE of plasma (%)
Numbers only, in %.

Consider the reported chemical recovery by SPE of plasma for these compounds:
CC(C)NCC(O)c1ccc(NS(C)(=O)=O)cc1 (stereo not drawn) [Sotalol]    30.9
CS(=O)(=O)c1ccc(C(=O)C2C(=O)CCCC2=O)c(Cl)c1 [Sulcotrione]    54.5

Attention now shifts to the item below.
Quick check: chemical recovery by SPE of plasma of OC(c1ccc(Cl)cc1)(c1ccc(Cl)cc1)C(Cl)(Cl)Cl [Dicofol] ?
15.2

====

PROTOCOL DESCRIPTION: chemical recovery by SPE of plasma after PDMS sampling; higher = better extraction
CONDITION PARAMETERS: pooled human plasma; extraction method: HLB SPE of plasma after PES; equilibration time (d): 3
MEASUREMENT KIND: chemical recovery by SPE of plasma (%)
One number for each entry, in %.

Consider the reported chemical recovery by SPE of plasma for these molecules:
Cc1cnc2c(C(=O)O)c(Cl)ccc2c1 [Quinmerac]    61.1
CC(=O)CCCCn1c(=O)c2c(ncn2C)n(C)c1=O [Pentoxifylline]    33.6
c1ccc2c(c1)[nH]c1cnccc12 [Norharmane]    2.75
COCN(COC)c1nc(N(COC)COC)nc(N(COC)COC)n1 [Hexa(methoxymethyl)melamine]    3.37
Clc1cc(Cl)c(-c2ccc(Cl)c(Cl)c2Cl)cc1Cl [PCB138]    1.78
CCOP(=O)(OCC)OCC [Triethylphosphate]    15.8

Return reported chemical recovery by SPE of plasma values for all items listed beneath this line.
1. c1ccc2sc(NC3CCCCC3)nc2c1 [N-Cyclohexyl-2-benzothiazole-amine]
2. CC(Cc1ccc(C(C)(C)C)cc1)CN1C[C@@H](C)O[C@@H](C)C1 (some centres not stated) [Fenpropimorph]
3. CN(C)C(=O)C(CCN1CCC(O)(c2ccc(Cl)cc2)CC1)(c1ccccc1)c1ccccc1 [Loperamide]
4. CC(=O)Nc1ccc(O)c(C(=O)O)c1 [N-Acetyl mesalazine]
5. NC(=O)N1c2ccccc2C=Cc2cc(O)ccc21 [2-Hydroxycarbamazepine]

1: 0.595; 2: 0.066; 3: 3.93; 4: 61.6; 5: 55.6

Return reported chemical recovery by SPE of plasma values for all items listed beneath this line.
1. c1cc2ccc3cccc4ccc(c1)c2c34 [Pyrene]
2. CCc1ccc(CCOc2ccc(CC3SC(=O)NC3=O)cc2)nc1 (configuration not stated) [Pioglitazone]
3. Clc1ccc2[nH]nnc2c1 [5-Chlorobenzotriazole]
4. COc1nc(C)nc(NC(=O)NS(=O)(=O)c2ccccc2CCC(F)(F)F)n1 [Prosulfuron]
5. CN(C)CCC=C1c2ccccc2CCc2ccccc21 [Amitriptyline]
6. O=S(=O)(O)c1ccc2[nH]c(-c3ccccc3)nc2c1 [Phenylbenzimidazole sulfonic acid]
7. Clc1ccc(COC(Cn2ccnc2)c2ccc(Cl)cc2Cl)c(Cl)c1 (configuration not stated) [Miconazole]
8. C[C@@H]1C[C@H]2[C@@H]3C[C@H](F)C4=CC(=O)C=C[C@]4(C)[C@@]3(F)[C@@H](O)C[C@]2(C)[C@@]1(O)C(=O)CO [Flumethasone]

5.06
49.1
55.2
50.6
0.14
49
0.405
51.4

====

Give chemical recovery for every item shown.
PROTOCOL DESCRIPTION: chemical recovery from spiked human plasma; higher = better extraction
CONDITION PARAMETERS: pooled human plasma; extraction method: PES+SPE (3 d PDMS equilibration then HLB SPE)
Numbers only, in %.

C=CCOC(Cn1ccnc1)c1ccc(Cl)cc1Cl (centres undefined) [Imazalil]    21.3
CCC(=C(c1ccc(O)cc1)c1ccc(OCCN(C)C)cc1)c1ccccc1 [4-Hydroxytamoxifen]    11.4
COc1ccc2cc(C(C)C(=O)O)ccc2c1 (centres undefined) [Naproxen]    66
COc1cc(-c2ccc(N)c(OC)c2)ccc1N [o-Dianisidine]    0.374
Cc1cc(Cl)ccc1/N=C/N(C)C [Chlordimeform]    28.8
Cn1c(N)nc2c3cccnc3ccc21 [2-Amino-3-methyl-imidazo[4,5-f]quinoline-(IQ)]    27

Return reported chemical recovery values for all items listed beneath this line.
1. CCCCOCCOCCOCCO [Triethylene-Glycol-Monobutyl-Ether]
2. CC(Oc1ccc(Oc2ncc(C(F)(F)F)cc2Cl)cc1)C(=O)O (centres undefined) [Haloxyfop-P]
3. c1ccc(-c2cccc3ccccc23)cc1 [1-Phenylnaphthalene]
4. O=C1Nc2ccc(Cl)cc2C(c2ccccc2)=NC1O (centres undefined) [Oxazepam]
5. Cc1cc(Cc2ccc(N)c(C)c2)ccc1N [4,4'-Methylene-bis(2-methyl aniline)]
6. CO/C=C(/C(=O)OC)c1ccccc1Oc1cc(Oc2ccccc2C#N)ncn1 [Azoxystrobin]
7. Oc1ccc(Cl)cc1Cc1ccccc1 [Chlorophene]

1: 165; 2: 41; 3: 45.1; 4: 41.3; 5: 1.31; 6: 46.6; 7: 41.5

Quick check: chemical recovery of c1ccc2c(c1)-c1cccc3cccc-2c13 [Fluoranthene] ?
79.1

====

PROTOCOL DESCRIPTION: chemical recovery from spiked human plasma; higher = better extraction
CONDITION PARAMETERS: pooled human plasma; extraction method: SPE only (HLB 96-well), PES comparison experiment
Please enter y where chemical recovery is greater than or equal to 50%, and n where it is lower.

Consider the following illustrative entries.
Cn1sc(Cl)cc1=O [Methylchloroisothiazolinone]    n
O=S(=O)(O)c1ccc2[nH]c(-c3ccccc3)nc2c1 [Phenylbenzimidazole sulfonic acid]    y
c1ccc(-c2ccc(C(c3ccccc3)n3ccnc3)cc2)cc1 (centres undefined) [Bifonazol]    n
CO/N=C(/C(=O)O)c1ccccc1CO/N=C(\C)c1cccc(C(F)(F)F)c1    n
Clc1ccc(Cl)c(-c2cc(Cl)ccc2Cl)c1 [PCB52]    n

Decide: is the reported value of chemical recovery for Nc1cccc2cc(S(=O)(=O)O)ccc12 [5-Aminonaphthalene-2-sulfonic acid] equal to or greater than 50%?
n

Decide: is the reported value of chemical recovery for O=c1[nH]c2ccccc2s1 [2-Hydroxybenzothiazole] equal to or greater than 50%?
y

Decide: is the reported value of chemical recovery for CCC(C(N)=O)(C(N)=O)c1ccccc1 [Phenylethylmalonamide] equal to or greater than 50%?
y

====

PROTOCOL DESCRIPTION: chemical recovery into PDMS from spiked human plasma; higher = better extraction
CONDITION PARAMETERS: pooled human plasma; extraction method: PES with PDMS; equilibration time (d): 1
Please enter 1 where chemical recovery into PDMS is greater than or equal to 20%, and 0 where it is lower.

Consider the following illustrative entries.
CCCc1nc2c(C)cc(-c3nc4ccccc4n3C)cc2n1Cc1ccc(-c2ccccc2C(=O)O)cc1 [Telmisartan]    0
CCOC(=O)NCCOc1ccc(Oc2ccccc2)cc1 [Fenoxycarb]    1
Clc1ccc(COC(Cn2ccnc2)c2ccc(Cl)cc2Cl)c(Cl)c1 (stereo not drawn) [Miconazole]    1
Clc1ccc2ccccc2c1 [2-Chloronaphthalene]    0
CC(=O)N1CCN(c2ccc(OC[C@H]3CO[C@](Cn4ccnc4)(c4ccc(Cl)cc4Cl)O3)cc2)CC1 (racemic) [Ketoconazole]    0
O=C1CC2(CCCCC2)CN1 [Gabapentin-Lactam]    1
CN(C)c1nc(=O)n(C2CCCCC2)c(=O)n1C [Hexazinone]    1

We next turn to a different molecule, shown below.
Decide: is the reported value of chemical recovery into PDMS for CC(C)c1ccc(NC(=O)N(C)C)cc1 [Isoproturon] equal to or greater than 20%?
1

====

PROTOCOL DESCRIPTION: chemical recovery from spiked human plasma; higher = better extraction
CONDITION PARAMETERS: pooled human plasma; extraction method: SPE only (HLB 96-well)
MEASUREMENT KIND: chemical recovery (%)
Give bare numbers, in %.

c1ccc2[nH]ccc2c1    8.76
COc1ccc(C(=O)c2ccccc2)c(O)c1    28.9
CC(C)c1cc(C(C)(C)c2ccc(O)c(C(C)C)c2)ccc1O    8.38

Return reported chemical recovery values for all items listed beneath this line.
1. CCCCCCN
2. COCCOCCOCCO

[8.65, 6.88]

====

PROTOCOL DESCRIPTION: chemical recovery from spiked human plasma; higher = better extraction
CONDITION PARAMETERS: pooled human plasma; extraction method: solvent precipitation (ACN + hexane)
Give chemical recovery for every item shown.
One number for each entry, in %.

Consider the reported chemical recovery for these compounds:
CC(C)(c1ccccc1)c1ccc(O)cc1 [4-Cumylphenol]    46.6
Oc1cc(Cl)c(Cl)c(Cl)c1 [3,4,5-Trichlorophenol]    70.1
CC(C)CCCCOC(=O)c1ccccc1C(=O)OCCCCC(C)C [Diisoheptyl-phthalate]    103
CNC(=O)O/N=C(\SC)C(=O)N(C)C [Oxamyl]    6.16
CC[C@H](C)C(=O)O[C@H]1C[C@H](O)C=C2C=C[C@H](C)[C@H](CC[C@@H](O)C[C@@H](O)CC(=O)O)[C@H]21 [Pravastatin]    67

Return reported chemical recovery values for all items listed beneath this line.
1. CC[S+]([O-])CCSP(=O)(OC)OC (stereo not given) [Demeton-S-methyl-sulfoxide]
2. CCNc1ccc2c(C)cc(=O)oc2c1 [7-(Ethylamino)-4-methylcoumarin]
3. CCCCOC(=O)c1ccc(O)cc1 [Butylparaben]

1: 42.7; 2: 77.9; 3: 64.9

Return reported chemical recovery values for all items listed beneath this line.
1. Nc1nc(=O)n([C@@H]2CS[C@H](CO)O2)cc1F [Emtricitabine]
2. c1ccc2cc(-c3cc4ccccc4s3)ccc2c1 [2-(2-Naphthalenyl)benzothiophene]
3. O=C(Nc1ccc(F)cc1)c1cccc(Oc2cccc(C(F)(F)F)c2)n1 [Picolinafen]
4. COc1nc(NC(=O)NS(=O)(=O)c2ccccc2C(F)(F)F)nc(C(F)(F)F)n1 [Tritosulfuron]
5. CC1CN(C2CCCCCCCCCCC2)CC(C)O1 (stereo not given) [Dodemorph]
6. Cn1ccnc1S [Methimazol]

1. 71.1
2. 23.4
3. 69.8
4. 76.1
5. 73
6. 44.8

Return reported chemical recovery values for all items listed beneath this line.
1. O=C(O)c1cc(SSc2ccc([N+](=O)[O-])c(C(=O)O)c2)ccc1[N+](=O)[O-] [DTNB]
2. CC(C)c1ccc(N)cc1 [4-Isopropylaniline]
3. NC(=O)Nc1ccc(Cl)c(Cl)c1 [3,4-Dichlorophenylurea]
4. O=c1c2ccccc2[nH]c2ccccc12 [Acridone]
5. Cc1ccc2[nH]nnc2c1 [5-Methyl-1H-benzotriazole]
6. CC(C)c1c(C(=O)Nc2ccccc2)c(-c2ccccc2)c(-c2ccc(F)cc2)n1CC[C@@H](O)C[C@@H](O)CC(=O)O [Atorvastatin]
7. NC(=O)C1(N2CCCCC2)CCN(CCCC(=O)c2ccc(F)cc2)CC1 [Pipamperone]

1: 0.0596; 2: 23.6; 3: 71.8; 4: 71.9; 5: 58.1; 6: 61.7; 7: 71.4
